These data points were gathered from patent US9676714B2.

# experimental_system: proton pump (H+/K+-ATPase) (Sus scrofa)
# Construct: Gastric vesicles were prepared from hog stomach via centrifugal separation; from tissue; host or cells: hog stomach (gastric vesicles, method of Rabon et al. 1988)
# procedure_summary: Measurement of inhibitory effects on proton pump (H+/K+-ATPase) activities
# Type: biochemical
# test_context: hog gastric vesicles, K+-specific H+/K+-ATPase activity, Tris-HCl buffer pH 7.4, 37° C. for 40 minutes, malachite green Pi readout
Counter-ions that a name gives are not always drawn.
experimental_readout: pIC50
As a rule, pIC50 stands for the negative log10 of the concentration, concentration in M.

Below, each entry is followed by its recorded pIC50 result.
compound	quantitative_result
CNCc1cn(S(=O)(=O)c2cccnc2)c2cc(Nc3ccc(F)c(C)c3C)ccc12 [Example 66, hydrochloride]	6.57
CNCc1cn(S(=O)(=O)c2cccnc2)c2cc(-c3ccc(OC)cc3)ccc12 [Example 251, hydrochloride]	5.59
Cc1ccc(Nc2ccc3c(C(=O)N(C)C)cn(S(=O)(=O)c4cccnc4)c3c2)c(Cl)c1	4.70
CNCc1cn(S(=O)(=O)c2cccnc2)c2cc(Nc3ccc(OC(F)(F)F)cc3OC)ccc12 [Example 56, hydrochloride]	6.34

**Q:** Field: pIC50 (proton pump (H+/K+-ATPase) (Sus scrofa)). Entry: `CNCc1cn(S(=O)(=O)c2cccnc2)c2cc(-c3cccc(NC(C)=O)c3)ccc12`
**A:** 4.89

**Q:** Lab note: need pIC50 for CNCc1cn(S(=O)(=O)c2cccnc2)c2cc(Nc3ncccc3Br)ccc12 [Example 102, hydrochloride] on proton pump (H+/K+-ATPase) (Sus scrofa), anyone have it?
**A:** 5.60

**Q:** API: value(readout=pIC50, system=proton pump (H+/K+-ATPase) (Sus scrofa)) for record CNCc1cn(S(=O)(=O)c2cccc(OC(F)F)c2)c2cc(-c3cnc(OC)nc3)ccc12 [Example 266, hydrochloride]
**A:** 4.35

* * *

# experimental_system: proton pump (H+/K+-ATPase) (Sus scrofa, UniProt P19156)
# Construct: Gastric vesicles were prepared from hog stomach via centrifugal separation
# Sequence (P19156 whole entry): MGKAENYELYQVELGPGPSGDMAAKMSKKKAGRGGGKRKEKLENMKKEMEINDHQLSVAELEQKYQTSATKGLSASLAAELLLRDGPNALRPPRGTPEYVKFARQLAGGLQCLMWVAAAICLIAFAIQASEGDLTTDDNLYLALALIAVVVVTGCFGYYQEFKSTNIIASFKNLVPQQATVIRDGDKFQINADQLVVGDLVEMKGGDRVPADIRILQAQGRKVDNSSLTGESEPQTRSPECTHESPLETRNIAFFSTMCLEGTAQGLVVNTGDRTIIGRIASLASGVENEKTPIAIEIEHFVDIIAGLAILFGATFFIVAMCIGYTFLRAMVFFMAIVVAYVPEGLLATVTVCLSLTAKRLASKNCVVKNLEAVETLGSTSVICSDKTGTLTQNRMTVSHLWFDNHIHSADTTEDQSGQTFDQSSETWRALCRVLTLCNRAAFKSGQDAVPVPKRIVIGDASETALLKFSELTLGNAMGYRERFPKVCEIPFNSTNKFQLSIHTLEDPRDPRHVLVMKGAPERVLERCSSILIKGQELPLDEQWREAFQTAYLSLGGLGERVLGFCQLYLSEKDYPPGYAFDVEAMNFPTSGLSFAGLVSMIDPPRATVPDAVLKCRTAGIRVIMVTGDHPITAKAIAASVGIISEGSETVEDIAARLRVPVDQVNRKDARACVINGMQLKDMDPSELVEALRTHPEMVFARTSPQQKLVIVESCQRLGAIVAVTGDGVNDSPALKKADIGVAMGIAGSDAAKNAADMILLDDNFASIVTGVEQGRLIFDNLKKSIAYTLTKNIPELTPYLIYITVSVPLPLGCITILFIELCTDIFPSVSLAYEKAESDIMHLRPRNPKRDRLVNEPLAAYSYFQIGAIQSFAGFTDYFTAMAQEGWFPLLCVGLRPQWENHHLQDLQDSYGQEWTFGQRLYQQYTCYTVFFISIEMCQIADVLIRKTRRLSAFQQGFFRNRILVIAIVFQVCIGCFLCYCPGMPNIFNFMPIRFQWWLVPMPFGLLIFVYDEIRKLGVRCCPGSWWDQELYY
# Sequence (P18434 whole entry partner): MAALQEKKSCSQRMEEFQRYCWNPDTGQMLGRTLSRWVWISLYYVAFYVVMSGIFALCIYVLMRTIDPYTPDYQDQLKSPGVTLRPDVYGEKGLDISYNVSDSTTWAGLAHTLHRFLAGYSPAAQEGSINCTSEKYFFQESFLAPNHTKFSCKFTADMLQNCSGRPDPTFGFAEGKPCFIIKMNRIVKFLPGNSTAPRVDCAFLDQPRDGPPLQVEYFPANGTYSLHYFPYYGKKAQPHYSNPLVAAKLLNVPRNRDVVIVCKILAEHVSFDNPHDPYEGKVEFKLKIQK
# procedure_summary: Measurement of inhibitory effects on proton pump (H+/K+-ATPase) activities
# test_context: hog gastric vesicles, K+-specific H+/K+-ATPase activity, Tris-HCl buffer pH 7.4, 37° C. for 40 minutes, malachite green Pi readout
Structures can show the parent of a compound that is named as a salt.
Listed compounds paired with reported IC50
Quick reminder: number only, in nM, skip the unit.

Please review the entries below; each comes with its answer.
compound	IC50 (nM)
CNCc1cn(S(=O)(=O)c2cccc(Cl)c2)c2cc(Nc3ccc(C(F)(F)F)cc3Cl)ccc12 [Example 152, hydrochloride]	350
CNCc1cn(S(=O)(=O)c2cccc(OC(F)(F)F)c2)c2cc(Nc3ccc(C)nc3Cl)ccc12 [Example 205, hydrochloride]	1750

**Q:** Quick one: IC50 of CNCc1cn(S(=O)(=O)c2cccnc2)c2cc(Nc3cc(C)c(Cl)cc3C)ccc12 [Example 75, hydrochloride] ?
**A:** 290

**Q:** What does the data say about its IC50? Entry: CNCc1cn(S(=O)(=O)c2cccnc2)c2cc(Nc3c(F)cc(Br)cc3F)ccc12 [Example 92, hydrochloride]
**A:** 1510

**Q:** What measured IC50 goes with CNCc1cn(S(=O)(=O)c2cccc(C(F)(F)F)c2)c2cc(Nc3ccc(Cl)nc3Cl)ccc12 [Example 193, hydrochloride] ?
**A:** 580

**Q:** Entry CNCc1cn(S(=O)(=O)c2cccc(F)c2)c2cc(Nc3ccc(Cl)nc3C)cnc12 [Example 344, hydrochloride] has what IC50?
**A:** 970
